test.summary: NCI Yeast Anticancer Drug Screen. Data for the rad50 strain (AID 155)
condition.details: S. cerevisiae rad50 strain growth inhibition; at 5.0 µM (retest, dose inferred, filed as 0.5); stronger effect = higher value
Compounds without any hit were thinned out: in the full panel of roughly 79,000, 15% have a hit.
Is growth inhibition at least 10%? Then true. If not, false.

Completed entries (count: 4):
O=C(NN=C1CCCCC1)c1ccc([N+](=O)[O-])cc1 | false
CC(CCC(=O)O)[C@H]1CCC2[C@@H]3CC(O)[C@@H]4CC(O)CC[C@]4(C)C3CC[C@@]21C (some centres not stated) | false
CCCCCCCC/C=C\CCCCCCCC(=O)NCCN(C)C | false
CCCCCCCCCCCC(=O)NCCc1ccc(O)c(O)c1 | false

// query // inclusive: growth inhibition at least 10%? input: `COc1ccc(/C=C2\CN(C)C/C(=C\c3ccc(OC)cc3)C2=O)cc1`
// result true

// query // inclusive: growth inhibition at least 10%? input: `S=C(C(=S)N1CCOCC1)N1CCOCC1`
// result true

// query // inclusive: growth inhibition at least 10%? input: `CCSc1c2ccccc2nc2c(OC)ccc(OC)c12`
// result false

// query // inclusive: growth inhibition at least 10%? input: `O=[N+]([O-])C(=C(Nc1ccccc1)Nc1ccccc1)/C(Cl)=C(\Cl)Br`
// result false

// query // inclusive: growth inhibition at least 10%? input: `CCOC(=O)c1ccc(C(C)C)cc1`
// result false

// query // inclusive: growth inhibition at least 10%? input: `O=C(N/C(=C\c1ccc(Cl)cc1)c1nc2ccccc2s1)c1ccccc1`
// result true
